Where do these numbers come from? They come from paper PMC12280126.

Target: TDP1(148–608) (Homo sapiens, UniProt Q9NUW8)
Construct: SPR experiments were recorded for the truncated TDP1(148–608) and the β-lactam compound
Sequence (Q9NUW8 148-608): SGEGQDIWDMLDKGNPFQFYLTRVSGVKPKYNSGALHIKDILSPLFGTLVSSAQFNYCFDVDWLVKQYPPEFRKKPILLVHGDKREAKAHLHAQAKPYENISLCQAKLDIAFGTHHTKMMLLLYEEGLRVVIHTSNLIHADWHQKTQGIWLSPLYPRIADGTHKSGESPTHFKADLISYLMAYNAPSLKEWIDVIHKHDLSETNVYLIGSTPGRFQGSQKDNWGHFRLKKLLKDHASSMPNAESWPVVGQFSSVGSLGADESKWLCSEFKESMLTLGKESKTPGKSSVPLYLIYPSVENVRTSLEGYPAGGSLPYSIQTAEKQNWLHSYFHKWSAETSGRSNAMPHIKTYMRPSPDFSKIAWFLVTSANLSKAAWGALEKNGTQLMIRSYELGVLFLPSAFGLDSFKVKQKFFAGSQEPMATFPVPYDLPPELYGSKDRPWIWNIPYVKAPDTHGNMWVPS
Experiment: Surface plasmon resonance (SPR) binding analysis
Settings: TDP1(148–608) immobilized on CM5 chip, 50 nM – 25 µM compound
pKd: −log10 of the molar value.

>  <entry smiles>
CC(=O)OCC1=C(C(=O)O)N2C(=O)[C@@H](NC(=O)CCC[C@@H](N)C(=O)O)[C@H]2SC1

>  <experimental system>
TDP1(148–608) (Homo sapiens, UniProt Q9NUW8)

>  <pKd>
4.94

$$$$

###

Biological target: recombinant TDP2 (Homo sapiens, UniProt O95551)
Assay: in vitro gel-based fluorescence TDP2 assay (counterscreen)
Type: biochemical
Conditions: read-out: TDP2 IC50; 40 pM recombinant TDP2, 1 nM YN18 DNA substrate, 15 min, RT
pIC50: −log10 of the molar value. Structures can show the parent of a compound that is named as a salt.
property label: pIC50

>  <compound>
CC(=O)OCC1=C(C(=O)O)N2C(=O)[C@@H](NC(=O)CCC[C@@H](N)C(=O)O)[C@H]2SC1 [11-Zn, Cephalosporin C Zinc salt]

>  <experimental system>
recombinant TDP2 (Homo sapiens, UniProt O95551)

>  <measurement>
4.05

$$$$

###

Target: recombinant TDP1 (Homo sapiens)
Construct: incubated with 40 pM full-length recombinant TDP1 or TDP1 (148–608)
Test: in vitro gel-based fluorescence TDP1 catalytic assay
Type: biochemical
Details: 40 pM recombinant TDP1, 1 nM N14Y DNA substrate, 15 min, room temperature; read-out: TDP1 IC50
pIC50: −log10 of the molar value. Structures can show the parent of a compound that is named as a salt.

>  <molecule>
CC1(C)S[C@@H]2[C@H](NC(=O)C(C(=O)O)c3ccccc3)C(=O)N2[C@H]1C(=O)O (stereo partly drawn) [LG5, Carbenicillin disodium]

>  <pIC50>
< 3.00

$$$$
>  <molecule>
NCc1ccccc1CC(=O)N[C@@H]1C(=O)N2C(C(=O)O)=C(CSc3nnnn3CC(=O)O)CS[C@H]12 [LC10, Ceforanide]

>  <pIC50>
3.42

$$$$
>  <molecule>
CC1(C)S[C@@H]2[C@H](NC(=O)Cc3ccccc3)C(=O)N2[C@H]1C(=O)O [LC5, Benzylpenicillin potassium]

>  <pIC50>
< 3.00

$$$$
>  <molecule>
O=C(O)C1=C(CSc2nnnn2CS(=O)(=O)O)CS[C@@H]2[C@H](NC(=O)[C@H](O)c3ccccc3)C(=O)N12 [LF9, Cefonicid sodium]

>  <pIC50>
< 3.00

$$$$
>  <molecule>
CC/C=C(\C(=O)N[C@@H]1C(=O)N2C(C(=O)OCOC(=O)C(C)(C)C)=C(COC(N)=O)CS[C@H]12)c1csc(N)n1 [LD6, Cefcapene Pivoxil Hydrochloride]

>  <pIC50>
< 3.00

$$$$
>  <molecule>
CC1(C)S[C@@H]2[C@H](NC(=O)[C@H](N)c3ccccc3)C(=O)N2[C@H]1C(=O)OCOC(=O)[C@@H]1N2C(=O)C[C@H]2S(=O)(=O)C1(C)C [LE4, Sultamicillin Tosylate]

>  <pIC50>
< 3.00

$$$$

###

Catalogue of IC50 values
Target: recombinant TDP2 (Homo sapiens, UniProt O95551)
Sequence (O95551 1-362): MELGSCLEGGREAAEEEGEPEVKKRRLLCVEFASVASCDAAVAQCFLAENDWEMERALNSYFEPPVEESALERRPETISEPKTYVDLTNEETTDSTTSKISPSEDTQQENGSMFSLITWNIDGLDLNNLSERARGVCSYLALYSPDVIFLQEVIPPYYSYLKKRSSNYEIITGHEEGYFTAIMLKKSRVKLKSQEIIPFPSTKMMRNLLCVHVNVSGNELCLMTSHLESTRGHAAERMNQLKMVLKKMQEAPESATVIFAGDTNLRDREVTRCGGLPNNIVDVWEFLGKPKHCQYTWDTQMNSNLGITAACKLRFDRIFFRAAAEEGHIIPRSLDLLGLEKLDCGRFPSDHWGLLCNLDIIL
Assay: in vitro gel-based fluorescence TDP2 assay (counterscreen)
Format: biochemical
Settings: TDP2 IC50, 40 pM recombinant TDP2, 1 nM YN18 DNA substrate, 15 min, RT
Structures can show the parent of a compound that is named as a salt.

>  <compound>
CC(=O)OCC1=C(C(=O)O)N2C(=O)[C@@H](NC(=O)CCC[C@@H](N)C(=O)O)[C@H]2SC1 [compound 11, cephalosporin C]

>  <experimental system>
recombinant TDP2 (Homo sapiens, UniProt O95551)

>  <relation qualifier>
>

>  <IC50 / µM>
100

$$$$
>  <compound>
CC(=O)OCC1=C(C(=O)O)N2C(=O)[C@@H](NC(=O)CCC[C@@H](N)C(=O)O)[C@H]2SC1 [LB2, Cephalosporin C zinc salt]

>  <experimental system>
recombinant TDP2 (Homo sapiens, UniProt O95551)

>  <relation qualifier>
=

>  <IC50 / µM>
38.3

$$$$

###

Target: recombinant TDP1 (Homo sapiens, UniProt Q9NUW8)
Construct: incubated with 40 pM full-length recombinant TDP1 or TDP1 (148–608)
Sequence (Q9NUW8 whole entry): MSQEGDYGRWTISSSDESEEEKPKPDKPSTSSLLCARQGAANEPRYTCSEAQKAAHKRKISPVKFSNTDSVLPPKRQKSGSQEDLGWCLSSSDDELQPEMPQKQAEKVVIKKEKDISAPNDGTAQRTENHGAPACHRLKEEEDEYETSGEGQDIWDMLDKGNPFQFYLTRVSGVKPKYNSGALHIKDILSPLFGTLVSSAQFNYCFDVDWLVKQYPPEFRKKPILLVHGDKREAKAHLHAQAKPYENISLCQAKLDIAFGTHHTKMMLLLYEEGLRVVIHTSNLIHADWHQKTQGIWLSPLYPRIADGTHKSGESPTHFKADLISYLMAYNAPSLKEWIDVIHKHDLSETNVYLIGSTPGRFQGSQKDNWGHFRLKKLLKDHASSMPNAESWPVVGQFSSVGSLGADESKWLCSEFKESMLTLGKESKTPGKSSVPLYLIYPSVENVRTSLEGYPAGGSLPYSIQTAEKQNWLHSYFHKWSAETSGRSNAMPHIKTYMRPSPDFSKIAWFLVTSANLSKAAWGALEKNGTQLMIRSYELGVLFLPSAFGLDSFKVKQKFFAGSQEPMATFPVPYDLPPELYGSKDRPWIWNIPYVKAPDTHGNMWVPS
Assay: in vitro gel-based fluorescence TDP1 catalytic assay
Format: biochemical
Conditions: read-out: TDP1 IC50
pIC50: −log10 of the molar value.
property label: pIC50

>  <molecule>
CC(=O)OCC1=C(C(=O)O)N2C(=O)[C@@H](NC(=O)CSc3ccncc3)[C@H]2SC1

>  <experimental system>
recombinant TDP1 (Homo sapiens, UniProt Q9NUW8)

>  <property label>
pIC50

>  <measurement>
< 3.00

$$$$
>  <molecule>
CO[C@@]1(NC(=O)CSC[C@@H](N)C(=O)O)C(=O)N2C(C(=O)O)=C(CSc3nnnn3C)CS[C@@H]21 [LE3, Cefminox Sodium]

>  <experimental system>
recombinant TDP1 (Homo sapiens, UniProt Q9NUW8)

>  <property label>
pIC50

>  <measurement>
< 3.00

$$$$
>  <molecule>
CC1(C)[C@H](C(=O)O)N2C(=O)C[C@H]2S1(=O)=O

>  <experimental system>
recombinant TDP1 (Homo sapiens, UniProt Q9NUW8)

>  <property label>
pIC50

>  <measurement>
3.23

$$$$

###

Reported values of pIC50 for individual entries
Target: recombinant TDP1 (Homo sapiens, UniProt Q9NUW8)
Construct: incubated with 40 pM full-length recombinant TDP1 or TDP1 (148–608)
Assay: in vitro gel-based fluorescence TDP1 catalytic assay
Format: biochemical
Settings: 40 pM recombinant TDP1, 1 nM N14Y DNA substrate, 15 min, room temperature; read-out: TDP1 IC50
Method: We subjected select virtual screen hits to evaluation of TDP1 inhibitory potencies using in vitro gel-based fluorescence TDP1 catalytic assays (Fig. 2). […] We examined TDP1 inhibitory potencies of the compounds using the in vitro gel-based fluorescence assays as previously described[21]–[24]. […] The TDP1 inhibition IC50 values were calculated based on gel images of the cleavage product (N14P, 5’-Cy5-[…]-p-3’) (Fig. 3A and Table S2). […]
pIC50: −log10 of the molar value. Structures can show the parent of a compound that is named as a salt.

>  <compound>
CON=C(C(=O)NC1C(=O)N2C(C(=O)O)=C(CSC(=O)c3ccco3)CSC12)c1csc(N)n1 (stereo not shown) [LC2, Ceftiofur hydrochloride]

>  <experimental system>
recombinant TDP1 (Homo sapiens, UniProt Q9NUW8)

>  <pIC50>
< 3.00

$$$$
>  <compound>
CO/N=C(\C(=O)N[C@@H]1C(=O)N2C(C(=O)O)=C(C[N+]3(C)CCCC3)CS[C@H]12)c1csc(N)n1 [LB1, Cefepime Dihydrochloride Monohydrate]

>  <experimental system>
recombinant TDP1 (Homo sapiens, UniProt Q9NUW8)

>  <pIC50>
< 3.00

$$$$
>  <compound>
NC(=O)c1cc[n+](CC2=C(C(=O)O)N3C(=O)[C@@H](NC(=O)[C@@H](c4ccccc4)S(=O)(=O)[O-])[C@H]3SC2)cc1 [LC1, Cefsulodine sodium]

>  <experimental system>
recombinant TDP1 (Homo sapiens, UniProt Q9NUW8)

>  <pIC50>
< 3.00

$$$$
>  <compound>
CC1(C)S[C@@H]2[C@H](NC(=O)Cc3ccccc3)C(=O)N2[C@H]1C(=O)O [LH9, Penicillin G sodium salt]

>  <experimental system>
recombinant TDP1 (Homo sapiens, UniProt Q9NUW8)

>  <pIC50>
< 3.00

$$$$
>  <compound>
CC(=O)OCC1=C(C(=O)O)N2C(=O)[C@@H](NC(=O)CSc3ccncc3)[C@H]2SC1 [LC8, Cephapirin Sodium]

>  <experimental system>
recombinant TDP1 (Homo sapiens, UniProt Q9NUW8)

>  <pIC50>
3.30

$$$$
>  <compound>
C[C@H]1[C@H](NC(=O)/C(=N\OC(C)(C)C(=O)O)c2csc(N)n2)C(=O)N1S(=O)(=O)O

>  <experimental system>
recombinant TDP1 (Homo sapiens, UniProt Q9NUW8)

>  <pIC50>
3.21

$$$$
>  <compound>
CO/N=C(\C(=O)N[C@@H]1C(=O)N2C(C(=O)O)=C(CSC(=O)c3ccco3)CS[C@H]12)c1csc(N)n1 [LG1, Sodium ceftiofur]

>  <experimental system>
recombinant TDP1 (Homo sapiens, UniProt Q9NUW8)

>  <pIC50>
< 3.00

$$$$
>  <compound>
CC(=O)OCC1=C(C(=O)O)N2C(=O)[C@@H](NC(=O)CSC(=NC(C)C)NC(C)C)[C@H]2SC1

>  <experimental system>
recombinant TDP1 (Homo sapiens, UniProt Q9NUW8)

>  <pIC50>
< 3.00

$$$$
>  <compound>
C[n+]1ccn(C[C@@]2(C)[C@H](C(=O)[O-])N3C(=O)C[C@H]3S2(=O)=O)n1

>  <experimental system>
recombinant TDP1 (Homo sapiens, UniProt Q9NUW8)

>  <pIC50>
< 3.00

$$$$
>  <compound>
CC1(C)S[C@@H]2[C@H](NC(=O)[C@H](NC(=O)N3CCNC3=O)c3ccccc3)C(=O)N2[C@H]1C(=O)O [LF4, Azlocillin sodium]

>  <experimental system>
recombinant TDP1 (Homo sapiens, UniProt Q9NUW8)

>  <pIC50>
< 3.00

$$$$
>  <compound>
C/C=C/C1=C(C(=O)O)N2C(=O)[C@@H](NC(=O)[C@H](N)c3ccc(O)cc3)[C@H]2SC1 [LG8, Cefprozil hydrate]

>  <experimental system>
recombinant TDP1 (Homo sapiens, UniProt Q9NUW8)

>  <pIC50>
< 3.00

$$$$
>  <compound>
Cc1nnc(SCC2=C(C(=O)O)N3C(=O)[C@@H](NC(=O)Cn4cnnn4)[C@H]3SC2)s1 [LH10, Cefazolin sodium salt]

>  <experimental system>
recombinant TDP1 (Homo sapiens, UniProt Q9NUW8)

>  <pIC50>
3.28

$$$$
>  <compound>
CC1=C(C(=O)O)N2C(=O)[C@@H](NC(=O)[C@H](N)c3ccccc3)[C@H]2SC1

>  <experimental system>
recombinant TDP1 (Homo sapiens, UniProt Q9NUW8)

>  <pIC50>
< 3.00

$$$$
